# assaySystem: HIV-1 92UG024 envelope glycoprotein (Env) on pseudovirus (HIV-1)
# testMethodNotes: cell-based or functional assay
valueKind: IC50, pseudovirus neutralization

PGT-125 monoclonal antibody (antibody, V domains shown) VH: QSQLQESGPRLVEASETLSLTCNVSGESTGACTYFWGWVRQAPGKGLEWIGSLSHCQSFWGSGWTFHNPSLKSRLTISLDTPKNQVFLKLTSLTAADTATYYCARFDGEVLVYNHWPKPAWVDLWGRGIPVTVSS VL: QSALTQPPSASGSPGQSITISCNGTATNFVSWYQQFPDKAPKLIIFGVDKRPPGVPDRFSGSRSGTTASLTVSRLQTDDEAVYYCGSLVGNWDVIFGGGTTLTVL    > 10 µg/mL
PGT-126 monoclonal antibody (antibody, V domains shown) VH: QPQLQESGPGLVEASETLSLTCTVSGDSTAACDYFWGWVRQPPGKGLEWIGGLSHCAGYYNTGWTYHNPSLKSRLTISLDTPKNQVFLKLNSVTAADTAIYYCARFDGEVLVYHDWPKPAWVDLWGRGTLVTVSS VL: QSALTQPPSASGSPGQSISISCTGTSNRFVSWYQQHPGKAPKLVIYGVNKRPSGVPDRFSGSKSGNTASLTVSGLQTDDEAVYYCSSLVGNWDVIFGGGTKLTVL    > 10 µg/mL

Below: the item to evaluate.
Q: Please list IC50, pseudovirus neutralization recorded for the binder PGT-123 monoclonal antibody (antibody, V domains shown) VH: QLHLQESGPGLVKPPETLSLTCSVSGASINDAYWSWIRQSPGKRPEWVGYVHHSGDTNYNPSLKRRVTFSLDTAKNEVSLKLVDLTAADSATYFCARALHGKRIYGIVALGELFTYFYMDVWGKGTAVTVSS VL: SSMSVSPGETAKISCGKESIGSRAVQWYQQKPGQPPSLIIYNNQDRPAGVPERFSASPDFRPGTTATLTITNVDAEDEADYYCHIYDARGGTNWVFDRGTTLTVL
Result: > 10 µg/mL
